- Target Entity: gelatinase A (MMP-2) (Homo sapiens)
- Sequence (P08253 110-660): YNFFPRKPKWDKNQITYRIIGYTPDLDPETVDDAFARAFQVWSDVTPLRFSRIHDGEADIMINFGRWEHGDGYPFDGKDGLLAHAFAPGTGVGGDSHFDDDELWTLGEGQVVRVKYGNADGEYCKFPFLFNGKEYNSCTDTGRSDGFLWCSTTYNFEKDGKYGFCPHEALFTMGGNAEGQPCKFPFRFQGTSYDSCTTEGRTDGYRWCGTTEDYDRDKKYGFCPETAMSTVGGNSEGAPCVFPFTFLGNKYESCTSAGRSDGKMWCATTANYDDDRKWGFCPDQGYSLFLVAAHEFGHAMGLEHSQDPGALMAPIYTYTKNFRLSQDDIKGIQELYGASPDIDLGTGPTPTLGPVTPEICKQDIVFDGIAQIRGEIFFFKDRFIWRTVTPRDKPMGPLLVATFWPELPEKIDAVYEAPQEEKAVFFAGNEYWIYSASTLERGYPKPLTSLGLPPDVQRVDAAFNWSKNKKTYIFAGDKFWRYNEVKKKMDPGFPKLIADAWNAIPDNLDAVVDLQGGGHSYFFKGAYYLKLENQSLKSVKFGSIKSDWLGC
- Assay Summary: fluorescence-labeled gelatin degradation assay, partially purified enzyme
Measured Attribute: pIC50
pIC50 (log units): -log10 of the concentration in mol/L.

Req: Can you share its pIC50? I mean this compound: CON1C(=O)[C@@H](NC(=O)[C@@H](CC(=O)NO)CC(C)C)Cc2ccccc21 [OPB-3206]
Resp: 5.30

* * *

- Target Entity: stromelysin (Mus musculus, UniProt P28862)
- Sequence (P28862 100-477): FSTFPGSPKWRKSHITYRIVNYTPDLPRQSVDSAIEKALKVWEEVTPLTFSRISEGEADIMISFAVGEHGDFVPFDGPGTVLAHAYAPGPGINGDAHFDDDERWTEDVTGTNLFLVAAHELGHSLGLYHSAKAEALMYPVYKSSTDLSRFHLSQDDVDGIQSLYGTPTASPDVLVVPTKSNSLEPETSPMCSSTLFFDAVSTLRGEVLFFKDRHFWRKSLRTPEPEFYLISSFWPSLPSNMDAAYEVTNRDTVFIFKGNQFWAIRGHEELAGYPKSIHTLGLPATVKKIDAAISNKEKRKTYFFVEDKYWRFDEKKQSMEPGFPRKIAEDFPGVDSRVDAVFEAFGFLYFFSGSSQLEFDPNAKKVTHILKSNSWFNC
- Assay Summary: fluorescence-labeled casein degradation assay, partially purified enzyme
Measured Attribute: pIC50
pIC50 (log units): -log10 of the concentration in mol/L.

Req: Can you share its pIC50? I mean this compound: `CON1C(=O)[C@@H](NC(=O)[C@@H](CC(=O)NO)CC(C)C)Cc2ccccc21`
Resp: 5.70
